The values you see were collected from patent US20180334496A1.

tested on: T1, serum purified human Complement Factor D (human, UniProt P00746 26-253)
T1 construct: Serum purified protein flowed over the captured antibodies; also called CFD; human CFD
T1 sequence (P00746 26-253): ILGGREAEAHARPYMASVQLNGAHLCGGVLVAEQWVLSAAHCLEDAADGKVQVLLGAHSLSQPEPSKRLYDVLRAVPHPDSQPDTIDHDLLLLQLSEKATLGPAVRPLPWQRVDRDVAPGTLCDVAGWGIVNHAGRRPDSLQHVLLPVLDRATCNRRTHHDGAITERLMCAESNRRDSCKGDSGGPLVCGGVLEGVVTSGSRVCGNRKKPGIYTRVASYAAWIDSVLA
test method notes: SPR Biacore, antibody on protein A chip, single cycle kinetics, 37 C;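 further: antibodies captured on the protein A surface to roughly 70 RU in HBS-EP+ buffer, with rate and affinity constants fitted using BIAevaluation software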
Mark Satisfied only when Kd stays strictly below 8 pM. Values equal to the cut-off are Not satisfied.

{"binder": "54I59D / 54G60W101 (antibody, V domains shown) VH: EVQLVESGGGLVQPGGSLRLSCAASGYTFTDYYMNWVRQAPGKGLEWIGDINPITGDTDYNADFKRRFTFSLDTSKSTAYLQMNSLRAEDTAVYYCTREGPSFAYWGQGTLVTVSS VL: DIQLTQSPSSLSASVGDRVTITCRSSQTIVHSNGDTYLEWYQQKPGKAPNLLIGKVSNRWSGVPSRFSGSGSGTDFTLTISSLQPEDFATYYCFQGSHVPVTFGQGTKVEIK", "answer label": "Not satisfied"}
{"binder": "31S34I54I59D84S / 54R101V (antibody, V domains shown, KCD119 TAF variant; also called 3I534I54I59D84S / 54R101V) VH: EVQLVESGGGLVQPGGSLRLSCAASGYTFTSYYINWVRQAPGKGLEWIGDINPITGDTDYNADFKRRFTFSLDTSKSTAYLQMSSLRAEDTAVYYCTREGPSFAYWGQGTLVTVSS VL: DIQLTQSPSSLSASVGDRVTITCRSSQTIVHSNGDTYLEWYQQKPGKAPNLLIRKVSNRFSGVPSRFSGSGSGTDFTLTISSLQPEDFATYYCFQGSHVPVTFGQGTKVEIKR", "answer label": "Satisfied"}
{"binder": "54I59D / 50I60W101V (antibody, V domains shown, KCD119 TAF variant; full antibody captured on protein A) VH: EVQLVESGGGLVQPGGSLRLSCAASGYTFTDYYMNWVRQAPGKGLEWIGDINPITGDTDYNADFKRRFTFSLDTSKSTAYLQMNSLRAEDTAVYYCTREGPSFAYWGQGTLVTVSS VL: DIQLTQSPSSLSASVGDRVTITCRSSQTIVHSNGDTYLEWYQQKPGKAPILLIYKVSNRWSGVPSRFSGSGSGTDFTLTISSLQPEDFATYYCFQGSHVPVTFGQGTKVEIK", "answer label": "Not satisfied"}
{"binder": "54I59D84T / 32W60W101V (antibody, V domains shown, KCD119 TAF variant; full antibody captured on protein A) VH: EVQLVESGGGLVQPGGSLRLSCAASGYTFTDYYMNWVRQAPGKGLEWIGDINPITGDTDYNADFKRRFTFSLDTSKSTAYLQMTSLRAEDTAVYYCTREGPSFAYWGQGTLVTVSS VL: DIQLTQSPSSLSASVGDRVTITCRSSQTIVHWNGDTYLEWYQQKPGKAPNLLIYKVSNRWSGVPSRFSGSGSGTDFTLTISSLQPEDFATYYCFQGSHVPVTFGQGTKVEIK", "answer label": "Not satisfied"}
{"binder": "34I54I59D84S / 54G101V (antibody, V domains shown, also called 34I54I59D845 / 54G101V) VH: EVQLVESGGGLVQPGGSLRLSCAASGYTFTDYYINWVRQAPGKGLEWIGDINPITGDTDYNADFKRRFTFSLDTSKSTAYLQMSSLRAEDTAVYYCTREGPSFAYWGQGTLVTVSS VL: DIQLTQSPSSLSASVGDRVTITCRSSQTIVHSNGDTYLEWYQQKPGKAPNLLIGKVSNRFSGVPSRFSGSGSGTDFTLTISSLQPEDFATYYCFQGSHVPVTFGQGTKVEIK", "answer label": "Satisfied"}
